Listed here: items and their measured BODY WEIGHTS.
experiment: Hair growth test: body weight; format: in vivo; conditions: 60 ug/head/day, skin, Day 1
Positions of bridges follow the written chain, without caps; N, C: chain ends. No end group written: not given here.
measuredParameter: BODY WEIGHTS (g)

INSERT INTO measurements (substance, unitannotation, recordedresult) VALUES
  ('HU026 (TRGDCDLPEFCP; disulfide 5-11; listed as Homo sapiens)', 'g', 21.58),
  ('NH2—RPTRGDCDLPEFCPG—COOH (H-RPTRGDCDLPEFCPG-OH; cysteine pairing not given here; listed as Homo sapiens) [HU025]', 'g', 21.53),
  ('HU024 (RPTRGDCDLPEFCPG; disulfide 7-13; listed as Homo sapiens)', 'g', 21.54),
  ('NH2—RPTRGDCDL—COOH (H-RPTRGDCDL-OH; listed as Homo sapiens) [HU027]', 'g', 21.77);

###

experiment: Hair growth test: body weight; type: in vivo; conditions: 20 ug/head/day, skin, Day 7
Positions of bridges follow the written chain, without caps; N, C: chain ends. No end group written: not given here.
measuredParameter: BODY WEIGHTS (g)

INSERT INTO measurements (substance, recordedresult) VALUES
  ('NH2—RPTRGDCDL—COOH (H-RPTRGDCDL-OH; listed as Homo sapiens) [HU027]', 23.27),
  ('HU026 (TRGDCDLPEFCP; disulfide 5-11; listed as Homo sapiens)', 22.48),
  ('HU024 (RPTRGDCDLPEFCPG; disulfide 7-13; listed as Homo sapiens)', 22.64),
  ('NH2—RPTRGDCDLPEFCPG—COOH (H-RPTRGDCDLPEFCPG-OH; cysteine pairing not given here; listed as Homo sapiens) [HU025]', 22.63);

###

Parameter: BODY WEIGHTS. Scope: all listed entries.
assay: Hair growth test: body weight; type: in vivo; details: 20 ug/head/day, skin, Day 11
Positions of bridges follow the written chain, without caps; N, C: chain ends. No end group written: not given here.
measuredParameter: BODY WEIGHTS (g)

INSERT INTO assay_data (substance, measuredparameter, unitannotation, recordedresult) VALUES
  ('NH2—RPTRGDCDLPEFCPG—COOH (H-RPTRGDCDLPEFCPG-OH; cysteine pairing not given here; listed as Homo sapiens) [HU025]', 'BODY WEIGHTS', 'g', 23.77),
  ('NH2—RPTRGDCDL—COOH (H-RPTRGDCDL-OH; listed as Homo sapiens) [HU027]', 'BODY WEIGHTS', 'g', 23.98),
  ('HU026 (TRGDCDLPEFCP; disulfide 5-11; listed as Homo sapiens)', 'BODY WEIGHTS', 'g', 23.75),
  ('HU024 (RPTRGDCDLPEFCPG; disulfide 7-13; listed as Homo sapiens)', 'BODY WEIGHTS', 'g', 24.15);

###

test: Hair growth test: body weight; type: in vivo; conditions: 60 ug/head/day, skin, Day 11
Positions of bridges follow the written chain, without caps; N, C: chain ends. No end group written: not given here.
Measured BODY WEIGHTS, listed per entry for reference.
measuredParameter: BODY WEIGHTS (g)

INSERT INTO results (substance, measuredparameter, recordedresult) VALUES
  ('HU024 (RPTRGDCDLPEFCPG; disulfide 7-13; listed as Homo sapiens)', 'BODY WEIGHTS', 24.30),
  ('NH2—RPTRGDCDLPEFCPG—COOH (H-RPTRGDCDLPEFCPG-OH; cysteine pairing not given here; listed as Homo sapiens) [HU025]', 'BODY WEIGHTS', 24.23),
  ('HU026 (TRGDCDLPEFCP; disulfide 5-11; listed as Homo sapiens)', 'BODY WEIGHTS', 23.83),
  ('NH2—RPTRGDCDL—COOH (H-RPTRGDCDL-OH; listed as Homo sapiens) [HU027]', 'BODY WEIGHTS', 23.97);

###

test system: hair growth of C57BL/6 mouse; assay: Hair growth test: hair growing area; assay type: in vivo; details: 20 ug/head/day, Day 14
Positions of bridges follow the written chain, without caps; N, C: chain ends. No end group written: not given here.
measuredParameter: HAIR AREA (%)

INSERT INTO results (substance, unitannotation, recordedresult) VALUES
  ('HU026 (TRGDCDLPEFCP; disulfide 5-11; listed as Homo sapiens)', '%', 56.64),
  ('NH2—RPTRGDCDL—COOH (H-RPTRGDCDL-OH; listed as Homo sapiens) [HU027]', '%', 56.95),
  ('NH2—RPTRGDCDLPEFCPG—COOH (H-RPTRGDCDLPEFCPG-OH; cysteine pairing not given here; listed as Homo sapiens) [HU025]', '%', 39.88),
  ('HU024 (RPTRGDCDLPEFCPG; disulfide 7-13; listed as Homo sapiens)', '%', 67.34);

###

experiment: Hair growth test: body weight; assay type: in vivo; details: 60 ug/head/day, skin, Day 7
Positions of bridges follow the written chain, without caps; N, C: chain ends. No end group written: not given here.
measuredParameter: BODY WEIGHTS (g)

INSERT INTO measurements (substance, recordedresult) VALUES
  ('HU024 (RPTRGDCDLPEFCPG; disulfide 7-13; listed as Homo sapiens)', 23.02),
  ('NH2—RPTRGDCDL—COOH (H-RPTRGDCDL-OH; listed as Homo sapiens) [HU027]', 23.07),
  ('HU026 (TRGDCDLPEFCP; disulfide 5-11; listed as Homo sapiens)', 22.80),
  ('NH2—RPTRGDCDLPEFCPG—COOH (H-RPTRGDCDLPEFCPG-OH; cysteine pairing not given here; listed as Homo sapiens) [HU025]', 23.20);

###

test system: hair growth of C57BL/6 mouse; experiment: Hair growth test: hair growing area; assay type: in vivo; details: 60 ug/head/day, Day 1
Positions of bridges follow the written chain, without caps; N, C: chain ends. No end group written: not given here.
Listed substances paired with reported HAIR AREA (%)
measuredParameter: HAIR AREA (%)

INSERT INTO measurements (substance, studysystem, measuredparameter, recordedresult) VALUES
  ('NH2—RPTRGDCDL—COOH (H-RPTRGDCDL-OH; listed as Homo sapiens) [HU027]', 'hair growth of C57BL/6 mouse', 'HAIR AREA (%)', 0.17),
  ('HU024 (RPTRGDCDLPEFCPG; disulfide 7-13; listed as Homo sapiens)', 'hair growth of C57BL/6 mouse', 'HAIR AREA (%)', 0.04),
  ('NH2—RPTRGDCDLPEFCPG—COOH (H-RPTRGDCDLPEFCPG-OH; cysteine pairing not given here; listed as Homo sapiens) [HU025]', 'hair growth of C57BL/6 mouse', 'HAIR AREA (%)', 0.04),
  ('HU026 (TRGDCDLPEFCP; disulfide 5-11; listed as Homo sapiens)', 'hair growth of C57BL/6 mouse', 'HAIR AREA (%)', 0.07);

###

System: hair growth of C57BL/6 mouse
Assay: Hair growth test: hair growing area
Format: in vivo
Details: 60 ug/head/day, Day 14
Experimental: This test was conducted to assess the influence on hair growth of C57BL/6 mouse when 4 types of test substances, HU024 (SEQ ID NO:2), HU025 (SEQ ID NO:3), HU026 (SEQ ID NO:4), and HU027 (SEQ ID NO:5), were applied to the skin for 14 days. […] The hair growing area (%) relative to the test substance-applied area was measured and determined, and Image analyzer program (Image Pro Plus ver. 6.3, Cybermetics, USA) was used to measure. […]
Positions of bridges follow the written chain, without caps; N, C: chain ends. No end group written: not given here.
Property: HAIR AREA (%); scope: individual substances
measuredParameter: HAIR AREA (%)

INSERT INTO measurements (substance, recordedresult) VALUES
  ('NH2—RPTRGDCDLPEFCPG—COOH (H-RPTRGDCDLPEFCPG-OH; cysteine pairing not given here; listed as Homo sapiens) [HU025]', 75.45),
  ('HU026 (TRGDCDLPEFCP; disulfide 5-11; listed as Homo sapiens)', 65.41),
  ('HU024 (RPTRGDCDLPEFCPG; disulfide 7-13; listed as Homo sapiens)', 55.69),
  ('NH2—RPTRGDCDL—COOH (H-RPTRGDCDL-OH; listed as Homo sapiens) [HU027]', 61.95);

The origin of these recorded values is patent US10632181B2.
